Exercise: state measured CC50 at 120 h for each of the molecules provided.
assay.overview: Cytotoxicity against human MT4 cells assessed as reduction in cell viability incubated for 5 days by MTT assay
Type: toxicity, cell-based
conditions.used: time 5 day

record.smiles	CC50 at 120 h
Cc1cc(/C=C/C#N)cc(C)c1Oc1nc(Nc2ccc(N3CCN(S(C)(=O)=O)CC3)c(F)c2)ncc1-c1cccnc1	> 41.7 µM
Cc1cc(/C=C/C#N)cc(C)c1Oc1nc(Nc2ccc(N3CCS(=O)(=O)CC3)c(F)c2)ncc1-c1cnc(N)nc1	1 µM
Cc1cc(/C=C/C#N)cc(C)c1Oc1nc(Nc2ccc(N3CCN(S(C)(=O)=O)CC3)c(F)c2)ncc1-c1cnc(N)nc1	6.7 µM
Cc1cc(/C=C/C#N)cc(C)c1Oc1nc(Nc2ccc(N3CCS(=O)(=O)CC3)c(F)c2)ncc1-c1cccnc1	82.8 µM
Cc1cc(/C=C/C#N)cc(C)c1Oc1nc(Nc2ccc(N3CCN(S(C)(=O)=O)CC3)c(F)c2)ncc1-c1cncnc1	> 208 µM
Cc1cc(/C=C/C#N)cc(C)c1Oc1nc(Nc2ccc(N3CCS(=O)(=O)CC3)c(C#N)c2)ncc1-c1cnc(N)nc1	0.8 µM

Would you be so kind as to report CC50 at 120 h for each listed record?
1. Cc1cc(/C=C/C#N)cc(C)c1Oc1nc(Nc2ccc(N3CCS(=O)(=O)CC3)c(C#N)c2)ncc1-c1cncnc1
2. Cc1cc(/C=C/C#N)cc(C)c1Oc1nc(Nc2ccc(N3CCS(=O)(=O)CC3)c(C#N)c2)ncc1-c1ccc(F)nc1

Ans.
1. 2.4 µM
2. > 210 µM

Measured values drawn from ChEMBL document CHEMBL6109097 for this set.
